Where these numbers come from: the supplement of paper PMC10567573

B1: SNX8 (parent)
chain: VVLKLFLSFSGSDVQNKLKESAQC

Variants of: B1
Assay: protein stability index of a GFP-peptide fusion (GPS, HEK-293T) (PSI 1-6); higher = more stable;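 also: lentivirally expressed fusions sorted by FACS into six bins by GFP to DsRed ratio, PSI derived from sequencing read proportions per bin multiplied by bin number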
Details: c terminus: a fixed tail appended
measurement kind: protein stability index

Lookup: // query protein stability index value for entry S10P
Found: 1.78

Lookup: Need protein stability index, item N16G
Found: 1.35

Lookup: Requested read-out: protein stability index. Entry: L3V
Found: 3.77

Lookup: Any idea what protein stability index was measured for E20Y ?
Found: 3.73

Lookup: Name the recorded protein stability index for L18T .
Found: 2.13

Lookup: Which protein stability index value is on record for S10Q ?
Found: 2.18

Lookup: # lookup: protein stability index of L5C
Found: 2.91

Lookup: Consider the variant shown here: G11I What is its recorded protein stability index?
Found: 2.14

Lookup: I'd like to know its protein stability index. The variant in question is V2K
Found: 3.26

Lookup: Entry under review: S21V . Reported protein stability index?
Found: 2.46

Lookup: Please give the measured protein stability index for this variant: S21K
Found: 2.25

Lookup: Look up protein stability index: L7F
Found: 2.35

Lookup: Look up protein stability index for this variant: V1P
Found: 1.85

Lookup: Look up protein stability index for this variant: K19I
Found: 2.23

Lookup: Would you mind telling me what protein stability index value was observed for L5I ?
Found: 2.62

Lookup: I am curious: what protein stability index value has been reported for L18A ?
Found: 2.7

Lookup: Report protein stability index for L18E please.
Found: 2.26

Lookup: Query: protein stability index; subject: S10V
Found: 3.99

Lookup: Given the variant N16W , what is its reported protein stability index?
Found: 3.64

Lookup: Returns the measured protein stability index for the input variant. Input: F9I
Found: 3.38

Lookup: Request the reported protein stability index associated with L3Q
Found: 2.61

Lookup: I am curious: what protein stability index value has been reported for L7D ?
Found: 1.73

Lookup: Which protein stability index is listed for V14D ?
Found: 2.3

Lookup: So what does the record say about protein stability index for L3A ?
Found: 2.34

Lookup: Can you share its protein stability index? I mean this variant: Q23Y
Found: 2.52

Lookup: Entry under review: V14H . Reported protein stability index?
Found: 1.59

Lookup: Form field: reported protein stability index of L18Q
Found: 4.56

Lookup: Suppose we examine the variant S8P ; what protein stability index value has been reported?
Found: 5.05

Lookup: Consider the variant shown here: L3D What is its recorded protein stability index?
Found: 2.44

Lookup: So what's the measured protein stability index for this one? G11D
Found: 2.11

Lookup: What value of protein stability index has been recorded for this entry: S12H
Found: 1.9

Lookup: // query protein stability index value for entry Q15Y
Found: 3.96

Lookup: Record request: protein stability index value, item K17T
Found: 3.29

Lookup: Can you look up the measured protein stability index of N16Q for me?
Found: 4.03

Lookup: Give its protein stability index value. Item: Q23K
Found: 2.59

Lookup: Please give the measured protein stability index for this variant: A22D
Found: 4.82

Lookup: State the recorded protein stability index for this entry: F9P
Found: 2.64

Lookup: Which protein stability index is listed for K17A ?
Found: 1.72

Lookup: Value lookup for protein stability index; key = V1Q
Found: 4.24

Lookup: Could you share which protein stability index value was measured for K19A ?
Found: 4.92

Lookup: Suppose we examine the variant S10R ; what protein stability index value has been reported?
Found: 2.08

Lookup: I am curious: what protein stability index value has been reported for S10D ?
Found: 2.68

Lookup: I have this variant here, N16I , and I need its recorded protein stability index.
Found: 2.64

Lookup: protein stability index for V2P ?
Found: 2.19

Lookup: // lookup protein stability index for Q15M
Found: 4.13

Lookup: Which protein stability index value belongs to V14T ?
Found: 2.53

Lookup: protein stability index lookup needed for S8W , thanks.
Found: 2.64

Lookup: Reported protein stability index for V1W : what is it?
Found: 1.04

Lookup: Name the reported protein stability index value associated with the variant D13Q
Found: 3.33

Lookup: Which protein stability index reading was recorded for the variant G11Q ?
Found: 1.77

Lookup: Need protein stability index, item C24H
Found: 2.17

Lookup: What protein stability index value was documented for this variant, D13T ?
Found: 2.28

Lookup: What does the data say about its protein stability index? Entry: A22W
Found: 3.87

Lookup: Quick one: protein stability index of C24F ?
Found: 4.02

Lookup: Dear colleague, I am looking for the recorded protein stability index of the following variant: G11V
Found: 3.28

Lookup: Endpoint output: protein stability index of E20F . Value?
Found: 3.18

Lookup: Name the reported protein stability index value associated with the variant N16A
Found: 2.02

Lookup: GET /values?readout=protein stability index&item= Q15C
Found: 4.88

Lookup: Find the recorded protein stability index belonging to V1Y and report it.
Found: 2.69

Lookup: # query: protein stability index of entry A22M
Found: 3.48

Lookup: I would be grateful if you could share the reported protein stability index for S12N .
Found: 2.13

Lookup: Endpoint output: protein stability index of K4N . Value?
Found: 2.76

Lookup: Given the variant L5F , what is its reported protein stability index?
Found: 3.22

Lookup: What measured protein stability index goes with F6E ?
Found: 1.31

Lookup: Entry under review: N16K . Reported protein stability index?
Found: 2.2

Lookup: Can you share its protein stability index? I mean this variant: L5Y
Found: 1.69

Lookup: Recorded protein stability index of L7H , please.
Found: 3.04

Lookup: Any idea what protein stability index was measured for F9K ?
Found: 1.72

Lookup: Looking for the measured protein stability index of K4Q , can you help?
Found: 2.43

Lookup: What value of protein stability index has been recorded for this entry: L3N
Found: 2.21

Lookup: I am curious: what protein stability index value has been reported for L5S ?
Found: 1.1

Lookup: What value of protein stability index has been recorded for this entry: L7V
Found: 3.66

Lookup: Suppose we examine the variant S12T ; what protein stability index value has been reported?
Found: 3.29

Lookup: Tell me the measured protein stability index of K19P , please.
Found: 3.75

Lookup: For the variant shown here, L3C , give the reported protein stability index.
Found: 2.4

Lookup: If you can, please state the reported protein stability index value of V2E .
Found: 1.39

Lookup: GET /values?readout=protein stability index&item= F9H
Found: 3.85

Lookup: Looking for the measured protein stability index of V1E , can you help?
Found: 2.47

Lookup: What does the record list as protein stability index for A22G ?
Found: 3.13

Lookup: Report protein stability index for G11H please.
Found: 2.62

Lookup: Consider the variant shown here: L5D What is its recorded protein stability index?
Found: 2.41

Lookup: Fill blank: measured protein stability index of the variant L3P is ____.
Found: 2.87

Lookup: // query protein stability index value for entry V2A
Found: 3.41

Lookup: Query: protein stability index; subject: S10K
Found: 2.22

Lookup: Item S10W has what recorded protein stability index?
Found: 3.92

Lookup: What value of protein stability index has been reported for the following variant? C24D
Found: 1.9

Lookup: Entry K17L : reported protein stability index = ?
Found: 3.46

Lookup: Given the variant V1H , what is its reported protein stability index?
Found: 1.6

Lookup: Quick one: protein stability index of V14A ?
Found: 2.43

Lookup: GET /values?readout=protein stability index&item= L18C
Found: 3.48

Lookup: Would you mind telling me what protein stability index value was observed for L7G ?
Found: 1.43
